Test: Cytotoxicity against HepG2 cells (CellTiter-Glo)
Assay type: cell-based, human
Conditions: human, HepG2 cells
pIC50: −log10 of the molar value.
READOUT_TYPE: pIC50

• O=C(Cc1ccc(C2=NCCN2)cc1)N[C@@H]1C(=O)N2C(C(=O)O)=C(CSc3nncs3)CS[C@H]12 [TBBL-0000316] = < 4.00

----------
Test: in vitro
Conditions: human, Caco-2, pH 7.4
READOUT_TYPE: efflux ratio at 120 min, 3 μM

* O=C(Cc1ccc(C2=NCCN2)cc1)N[C@@H]1C(=O)N2C(C(=O)O)=C(CSc3nncs3)CS[C@H]12 [TBBL-0000316] | 1.06

----------
Tested on: Caco-2 cells
Test: Caco-2 permeability / efflux transporter substrate
Settings: Caco-2
READOUT_TYPE: Caco-2 Mean Recovery % A to B

- Cn1nnnc1SCC1=C(C(=O)O)N2C(=O)[C@@H](NC(=O)Cc3ccc(C4=NCCCN4)cc3)[C@H]2SC1: 99.65%
- CON=C(C(=O)N[C@@H]1C(=O)N2C(C(=O)O)=C(CSc3cccc[n+]3[O-])CS[C@H]12)c1csc(N)n1: < 96.40%
- CC(=O)OCC1=C(C(=O)O)N2C(=O)[C@@H](NC(=O)CSc3ccncc3)[C@H]2SC1: < 87.73%

----------
Test: Stability in simulated gastric fluid (SGF)
Settings: 10 μM, pH 1.2, room temperature, 24 h
READOUT_TYPE: SGF Stability, % remaining, 24h (%)

* CCc1nnc(SCC2=C(C(=O)O)N3C(=O)[C@@H](NC(=O)Cc4ccc(C5=NCCCN5)cc4)[C@H]3SC2)s1 | 79.32
* Cn1nnnc1SCC1=C(C(=O)O)N2C(=O)[C@@H](NC(=O)Cc3ccc(C4=NCCCN4)cc3)[C@H]2SC1 | 60.13
* CC(=O)OCC1=C(C(=O)O)N2C(=O)[C@@H](NC(=O)CSc3ccncc3)[C@H]2SC1 | 27.14
* CON=C(C(=O)N[C@@H]1C(=O)N2C(C(=O)O)=C(CSc3cccc[n+]3[O-])CS[C@H]12)c1csc(N)n1 | 90.77
* CCCc1nnc(SCC2=C(C(=O)O)N3C(=O)[C@@H](NC(=O)Cc4ccc(C(=N)N)cc4)[C@H]3SC2)s1 | 1.85
* CC=CC(=O)OCC1=C(C(=O)O)N2C(=O)[C@@H](NC(=O)C(=NO)c3cccs3)[C@H]2SC1 | 57.36
* NCCSC=CC1=C(C(=O)O)N2C(=O)C(NC(=O)CSc3ccc(Cl)c(Cl)c3)C2SC1 (centres unmarked) | 92.52
* NCc1ccccc1CC(=O)N[C@@H]1C(=O)N2C(C(=O)O)=C(CSc3nnnn3CCO)CS[C@H]12 | 53.93
* CCc1nnc(SCC2=C(C(=O)O)N3C(=O)[C@@H](NC(=O)Cc4ccc(C5=NCCN5)cc4)[C@H]3SC2)s1 | 0.61
* CNCc1ccccc1CC(=O)N[C@@H]1C(=O)N2C(C(=O)O)=C(CSc3nnnn3C)CS[C@H]12 | 49.27
* Cn1c(SCC2=C(C(=O)O)N3C(=O)[C@@H](NC(=O)Cc4ccccc4CN)[C@H]3SC2)nnc(O)c1=O | 85.68

----------
System: plasma proteins
Assay: Plasma protein binding (equilibrium dialysis), cynomolgus monkey
Conditions: 2 μM
Overview of recorded % bound to plasma, Cynomolgus Monkey for various compounds
READOUT_TYPE: % bound to plasma, Cynomolgus Monkey (%)

• CON=C(C(=O)N[C@@H]1C(=O)N2C(C(=O)O)=C(CSc3cccc[n+]3[O-])CS[C@H]12)c1csc(N)n1 = 84.3
• CNCc1ccccc1CC(=O)N[C@@H]1C(=O)N2C(C(=O)O)=C(CSc3nnnn3C)CS[C@H]12 = 21.9
• O=C(O)C1=C(CSc2cccc[n+]2[O-])CS[C@@H]2[C@H](NC(=O)C(F)c3ccccc3)C(=O)N12 (stereo partly shown) = 78.2
• Cn1nnnc1SCC1=C(C(=O)O)N2C(=O)[C@@H](NC(=O)Cc3ccc(C4=NCCCN4)cc3)[C@H]2SC1 = 29.4
